Numbers sourced from patent US6057135A.

Tested on: L-arabinose isomerase
assayNotes: L-arabinose isomerase bioconversion of D-galactose to D-tagatose, enzyme from Arthrobacter sp. ATCC 21920
Type: biochemical
setupConditions: 1.67 M D-galactose, 0.005 M metallic ion, 60° C., 120 min.
quantity: D-TAGATOSE (M)
Numbers only, in M.

sampleSmiles	quantity	endpointResult
[Fe+2]	D-TAGATOSE	0.037
[Co+2]	D-TAGATOSE	0.050
[Mg]	D-TAGATOSE	0.036
[Mn+2]	D-TAGATOSE	0.044
[Ca]	D-TAGATOSE	0.033
[Fe+3]	D-TAGATOSE	0.037

The compound [Zn+2] , tested on L-arabinose isomerase, showed D-TAGATOSE of 0.012
